Test system: Escherichia coli TOP10
test: shrunken log2 fold change of peptide-encoding DNA abundance (4.5 h post-induction vs induction); higher = less antimicrobial activity (less host growth inhibition)
particulars: time post-induction: 4.5 h; library: site-saturation at positions 5, 18, 19, 20
measurement_type: shrunken log2 fold change
Simply state the number, no unit and no words.

Bench note, Escherichia coli TOP10: RRIRIRPPRLPRPRPRPDDRPRP , shrunken log2 fold change reads 0.0115

Considering RRIRWRPPRLPRPRPRPGLHPRP , its shrunken log2 fold change with Escherichia coli TOP10 was recorded as 0.237

Tested on Escherichia coli TOP10: RRIRVRPPRLPRPRPRPSTCPRP . Observed shrunken log2 fold change: -0.325

Result for RRIRPRPPRLPRPRPRPGAGPRP , tested on Escherichia coli TOP10, shrunken log2 fold change: 0.555

Noted shrunken log2 fold change for RRIRNRPPRLPRPRPRPTILPRP , tested on Escherichia coli TOP10: -0.742

Item RRIRFRPPRLPRPRPRPCRLPRP ; assay system Escherichia coli TOP10; shrunken log2 fold change reported as -0.209

shrunken log2 fold change value, target or system Escherichia coli TOP10, for RRIRDRPPRLPRPRPRPNVEPRP : 0.119

Observed shrunken log2 fold change on Escherichia coli TOP10, entry RRIRLRPPRLPRPRPRPWQMPRP , equals 0.123

// sequence RRIRDRPPRLPRPRPRPAIDPRP , assay Escherichia coli TOP10, shrunken log2 fold change value: 0.336

Fill in: Escherichia coli TOP10 shrunken log2 fold change for RRIRPRPPRLPRPRPRPCWIPRP = -0.456

Case RRIRERPPRLPRPRPRPHVKPRP , Escherichia coli TOP10, shrunken log2 fold change recorded as -0.767

Field shrunken log2 fold change (system: Escherichia coli TOP10) for entry RRIRYRPPRLPRPRPRPSTCPRP = -0.687

Entry RRIRTRPPRLPRPRPRPYDQPRP , tested on Escherichia coli TOP10, has a reported shrunken log2 fold change of -0.241

Case RRIRIRPPRLPRPRPRPFDCPRP , Escherichia coli TOP10, shrunken log2 fold change recorded as -0.0028

The observed shrunken log2 fold change for RRIRDRPPRLPRPRPRPELPPRP when tested with Escherichia coli TOP10 stands at 0.302

====

Test system: Escherichia coli TOP10;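 note: peptides expressed intracellularly from a pBAD plasmid library in pooled LB shake-flask culture, induced with 0.3% L-arabinose, DNA abundance read by NGS, three biological replicates, DESeq2 with apeglm shrinkage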
test: shrunken log2 fold change of peptide-encoding DNA abundance (4.5 h post-induction vs induction); higher = less antimicrobial activity (less host growth inhibition)
particulars: time post-induction: 4.5 h; library: site-saturation at positions 5, 18, 19, 20
Consider the following sequences; for each one, report its shrunken log2 fold change.
Answer with a bare number; do not write a unit.

Considering RRIRARPPRLPRPRPRPCSPPRP , its shrunken log2 fold change with Escherichia coli TOP10 was recorded as -0.0746

Measured on Escherichia coli TOP10, RRIRLRPPRLPRPRPRPAYAPRP has a documented shrunken log2 fold change of -0.0747

The sequence RRIRMRPPRLPRPRPRPLSRPRP , tested on Escherichia coli TOP10, showed shrunken log2 fold change of 0.349

Record RRIRPRPPRLPRPRPRPRSNPRP has Escherichia coli TOP10 shrunken log2 fold change equal to -0.247

The reported Escherichia coli TOP10 shrunken log2 fold change of RRIRVRPPRLPRPRPRPIALPRP is -0.238

Reported shrunken log2 fold change (Escherichia coli TOP10) for entry RRIRIRPPRLPRPRPRPRWYPRP is -0.452

The sequence RRIRRRPPRLPRPRPRPWRRPRP , tested on Escherichia coli TOP10, showed shrunken log2 fold change of 0.358

The sequence RRIRTRPPRLPRPRPRPGNRPRP , when measured on Escherichia coli TOP10, yielded shrunken log2 fold change of 0.192
